Please provide measured % inhibition at 1 mM concentration of inhibitor for the entries that follow.
System: β-glucosidase (almond)
Assay: glycosidase inhibition assay, β-glucosidase from almond
Type: biochemical
Conditions: 1 mM inhibitor; pH 5.6
Description: A prepared sample of DAB-1 8 was also tested under the same conditions for ease of comparison. A first set of biological assays was effected at 1 mM concentration of inhibitor. […] Former results from our laboratories have always followed this empirical rule. […]
Give bare numbers, in %.

OC[C@@H]1[C@@H](O)[C@H](O)CN1CCCOCCOCCOCCCN1C[C@@H](O)[C@H](O)[C@H]1CO [13e] | 23
OC[C@@H]1[C@@H](O)[C@H](O)CN1CCOCCOCCN1C[C@@H](O)[C@H](O)[C@H]1CO [13d] | 24

Below are some molecules; for each one, tell me its % inhibition at 1 mM concentration of inhibitor.
1. OC[C@@H]1[C@@H](O)[C@H](O)CN1CCCCCCCCN1C[C@@H](O)[C@H](O)[C@H]1CO [13c]
2. C=CC[C@@H]1[C@@H](O)[C@H](O)[C@@H](CO)N1CCOCCOCCN1[C@H](CO)[C@@H](O)[C@H](O)[C@H]1CC=C [16d]

1: 60; 2: 25

###

Target: α-glucosidase (rice) (Oryza sativa subsp. japonica)
Construct: purchased Sigma Chemical Co
Sequence (Q653V7 34-885): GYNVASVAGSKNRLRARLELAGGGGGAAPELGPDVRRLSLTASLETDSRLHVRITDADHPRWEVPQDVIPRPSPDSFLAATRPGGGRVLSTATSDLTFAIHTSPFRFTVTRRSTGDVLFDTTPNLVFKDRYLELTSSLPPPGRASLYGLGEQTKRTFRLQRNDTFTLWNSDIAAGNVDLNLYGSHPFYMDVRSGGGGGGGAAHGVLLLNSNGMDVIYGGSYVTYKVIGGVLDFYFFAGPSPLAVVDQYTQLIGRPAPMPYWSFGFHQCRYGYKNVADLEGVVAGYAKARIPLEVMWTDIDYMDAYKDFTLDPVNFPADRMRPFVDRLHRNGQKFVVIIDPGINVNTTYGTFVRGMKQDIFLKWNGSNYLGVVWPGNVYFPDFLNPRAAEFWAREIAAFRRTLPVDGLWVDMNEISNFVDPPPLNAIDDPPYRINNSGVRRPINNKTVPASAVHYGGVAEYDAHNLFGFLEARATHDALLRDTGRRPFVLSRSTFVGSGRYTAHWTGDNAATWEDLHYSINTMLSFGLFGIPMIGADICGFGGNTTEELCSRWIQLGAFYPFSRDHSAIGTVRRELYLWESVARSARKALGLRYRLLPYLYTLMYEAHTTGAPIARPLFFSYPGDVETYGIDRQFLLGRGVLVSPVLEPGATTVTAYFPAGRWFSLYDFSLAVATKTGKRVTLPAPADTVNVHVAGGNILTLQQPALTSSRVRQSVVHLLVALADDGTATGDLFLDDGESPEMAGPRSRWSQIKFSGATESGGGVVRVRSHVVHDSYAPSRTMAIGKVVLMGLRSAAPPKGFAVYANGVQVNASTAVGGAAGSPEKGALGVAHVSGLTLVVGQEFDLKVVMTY
Test: glycosidase inhibition assay, α-glucosidase from rice
Assay type: biochemical
Settings: pH 5.1, 1 mM inhibitor; pH 5.1; p-nitrophenyl glycoside 1 mM; read-out: % inhibition at 1 mM concentration of inhibitor
Method: A prepared sample of DAB-1 8 was also tested under the same conditions for ease of comparison. A first set of biological assays was effected at 1 mM concentration of inhibitor. […] Former results from our laboratories have always followed this empirical rule. […]
Quick rule: inhibition at 1000 µM of at least 40% means 1, below that means 0.

Example cases with answers are listed next.
C=CC[C@@H]1[C@@H](O)[C@H](O)[C@@H](CO)N1CCOCCOCCN1[C@H](CO)[C@@H](O)[C@H](O)[C@H]1CC=C [16d] | 0
OC[C@@H]1[C@@H](O)[C@H](O)CN1CCCOCCOCCOCCCN1C[C@@H](O)[C@H](O)[C@H]1CO [13e] | 1
OC[C@@H]1[C@@H](O)[C@H](O)CN1CCCCCCCCN1C[C@@H](O)[C@H](O)[C@H]1CO [13c] | 1
OC[C@H]1NC[C@@H](O)[C@@H]1O | 1

Quick check, inhibition at 1000 µM >= 40%? OC[C@@H]1[C@@H](O)[C@H](O)CN1Cc1ccc(CN2C[C@@H](O)[C@H](O)[C@H]2CO)cc1 [13b]
1

###

target: α-glucosidase (Sac. cerevisiae) (Saccharomyces cerevisiae); construct: purchased Sigma Chemical Co; test: glycosidase inhibition assay, α-glucosidase from yeast; type: biochemical; conditions: pH 6.2; determined when >95% inhibition at 1 mM; read-out: IC50
Sequence (P53341 whole entry): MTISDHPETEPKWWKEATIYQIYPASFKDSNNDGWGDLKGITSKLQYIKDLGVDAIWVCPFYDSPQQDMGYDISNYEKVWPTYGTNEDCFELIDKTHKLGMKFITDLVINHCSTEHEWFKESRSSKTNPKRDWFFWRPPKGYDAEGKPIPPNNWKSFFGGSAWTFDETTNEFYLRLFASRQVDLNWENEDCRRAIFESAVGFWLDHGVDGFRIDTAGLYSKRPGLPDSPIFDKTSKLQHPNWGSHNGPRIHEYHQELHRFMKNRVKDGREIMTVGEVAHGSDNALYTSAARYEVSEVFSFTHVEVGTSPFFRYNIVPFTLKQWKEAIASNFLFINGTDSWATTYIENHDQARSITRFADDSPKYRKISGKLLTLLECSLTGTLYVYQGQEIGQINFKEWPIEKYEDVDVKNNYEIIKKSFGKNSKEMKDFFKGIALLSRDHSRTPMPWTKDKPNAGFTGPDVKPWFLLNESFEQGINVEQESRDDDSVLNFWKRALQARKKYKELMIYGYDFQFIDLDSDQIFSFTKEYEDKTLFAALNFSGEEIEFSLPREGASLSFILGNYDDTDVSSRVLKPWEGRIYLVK
parameter: pIC50
One number for each entry, as −log10 of the molar value.

Consider the compound shown here: OC[C@H]1NC[C@@H](O)[C@@H]1O What is its recorded pIC50?
6.16

###

molecular target: α-glucosidase (rice) (Oryza sativa subsp. japonica)
parameter: IC50 (µM)
Answers are plain numbers, in µM.

Consider the compound shown here: OC[C@H]1NC[C@@H](O)[C@@H]1O What is its recorded IC50?
7.8

###

molecular target: α-galactosidase (green coffee) (Coffea arabica, UniProt Q42656); construct: purchased Sigma Chemical Co; assay: glycosidase inhibition assay, α-galactosidase from green coffee bean; format: biochemical; conditions: 1 mM inhibitor; pH 5.6; read-out: % inhibition at 1 mM concentration of inhibitor
Sequence (Q42656 16-378): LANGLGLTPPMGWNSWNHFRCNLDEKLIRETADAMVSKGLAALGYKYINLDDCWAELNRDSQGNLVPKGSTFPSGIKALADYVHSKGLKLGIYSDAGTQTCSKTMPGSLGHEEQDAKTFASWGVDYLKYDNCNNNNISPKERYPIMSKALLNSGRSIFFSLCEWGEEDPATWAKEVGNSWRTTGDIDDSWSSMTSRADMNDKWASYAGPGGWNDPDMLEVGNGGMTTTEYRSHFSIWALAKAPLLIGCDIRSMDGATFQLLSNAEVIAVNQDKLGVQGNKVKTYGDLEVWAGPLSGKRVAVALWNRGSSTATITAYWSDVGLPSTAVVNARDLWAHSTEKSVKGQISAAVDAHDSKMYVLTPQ
parameter: inhibition at 1000 µM

Known results for compounds:
OC[C@H]1NC[C@@H](O)[C@@H]1O [DAB-1] | 11%
OC[C@@H]1[C@@H](O)[C@H](O)CN1CCCOCCOCCOCCCN1C[C@@H](O)[C@H](O)[C@H]1CO [13e] | 22%
C=CC[C@@H]1[C@@H](O)[C@H](O)[C@@H](CO)N1CCOCCOCCN1[C@H](CO)[C@@H](O)[C@H](O)[C@H]1CC=C [16d] | < 5%
OC[C@@H]1[C@@H](O)[C@H](O)CN1CCCCCCCCN1C[C@@H](O)[C@H](O)[C@H]1CO [13c] | 61%
OC[C@@H]1[C@@H](O)[C@H](O)CN1CCOCCOCCN1C[C@@H](O)[C@H](O)[C@H]1CO [13d] | 22%
OC[C@@H]1[C@@H](O)[C@H](O)CN1Cc1cccc(CN2C[C@@H](O)[C@H](O)[C@H]2CO)c1 [13a] | 38%

# ---- query compound ----
Consider the compound shown here: OC[C@@H]1[C@@H](O)[C@H](O)CN1Cc1ccc(CN2C[C@@H](O)[C@H](O)[C@H]2CO)cc1 [13b] What is its recorded inhibition at 1000 µM?
< 5%

###

Target: β-glucosidase (Asp. niger) (Aspergillus niger, UniProt A2RAL4)
Construct: purchased Sigma Chemical Co
Sequence (A2RAL4 20-860): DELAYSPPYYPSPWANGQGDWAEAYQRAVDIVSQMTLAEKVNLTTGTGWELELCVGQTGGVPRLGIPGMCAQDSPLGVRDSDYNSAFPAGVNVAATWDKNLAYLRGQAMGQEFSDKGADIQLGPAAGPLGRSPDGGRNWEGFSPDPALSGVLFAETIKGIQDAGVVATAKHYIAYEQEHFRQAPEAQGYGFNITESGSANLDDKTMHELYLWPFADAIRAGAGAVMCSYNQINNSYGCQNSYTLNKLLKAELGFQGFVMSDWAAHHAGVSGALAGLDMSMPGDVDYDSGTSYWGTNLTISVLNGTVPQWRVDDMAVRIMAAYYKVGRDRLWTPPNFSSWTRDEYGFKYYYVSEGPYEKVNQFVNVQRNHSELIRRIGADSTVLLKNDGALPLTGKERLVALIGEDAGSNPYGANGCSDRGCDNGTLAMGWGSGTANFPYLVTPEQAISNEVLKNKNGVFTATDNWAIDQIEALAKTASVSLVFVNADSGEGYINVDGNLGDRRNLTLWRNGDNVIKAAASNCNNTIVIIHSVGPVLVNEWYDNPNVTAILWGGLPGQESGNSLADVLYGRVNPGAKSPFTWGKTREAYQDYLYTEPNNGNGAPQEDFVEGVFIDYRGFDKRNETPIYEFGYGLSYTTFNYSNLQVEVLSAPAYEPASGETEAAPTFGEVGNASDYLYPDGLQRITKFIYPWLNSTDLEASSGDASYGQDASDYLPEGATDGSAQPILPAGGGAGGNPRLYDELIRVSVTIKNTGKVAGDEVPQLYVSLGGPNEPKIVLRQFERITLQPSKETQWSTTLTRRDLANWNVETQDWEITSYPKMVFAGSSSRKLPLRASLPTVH
Experiment: glycosidase inhibition assay, β-glucosidase from A. niger
Assay type: biochemical
Conditions: pH 5.6, 1 mM inhibitor; pH 5.6; read-out: % inhibition at 1 mM concentration of inhibitor
Procedure: A prepared sample of DAB-1 8 was also tested under the same conditions for ease of comparison. A first set of biological assays was effected at 1 mM concentration of inhibitor. […] Former results from our laboratories have always followed this empirical rule. […]
Please provide measured inhibition at 1000 µM for the entries that follow.
Give bare numbers, in %.

Known results for compounds:
C=CC[C@@H]1[C@@H](O)[C@H](O)[C@@H](CO)N1CCOCCOCCN1[C@H](CO)[C@@H](O)[C@H](O)[C@H]1CC=C [16d] | 51
OC[C@@H]1[C@@H](O)[C@H](O)CN1Cc1ccc(CN2C[C@@H](O)[C@H](O)[C@H]2CO)cc1 [13b] | 43
OC[C@@H]1[C@@H](O)[C@H](O)CN1CCCOCCOCCOCCCN1C[C@@H](O)[C@H](O)[C@H]1CO [13e] | 91

# ---- query compound ----
Consider the compound shown here: OC[C@@H]1[C@@H](O)[C@H](O)CN1CCCCCCCCN1C[C@@H](O)[C@H](O)[C@H]1CO [13c] What is its recorded inhibition at 1000 µM?
94

###

target: β-glucosidase (Asp. niger) (Aspergillus niger, UniProt A2RAL4)
parameter: IC50 (µM)
Numbers only, in µM.

Consider the compound shown here: OC[C@H]1NC[C@@H](O)[C@@H]1O What is its recorded IC50?
62

###

molecular target: β-glucosidase (almond); test: glycosidase inhibition assay, β-glucosidase from almond; conditions: pH 5.6
parameter: pIC50
Give bare numbers, as −log10 of the molar value.

Consider the molecule shown here: OC[C@H]1NC[C@@H](O)[C@@H]1O What is its recorded pIC50?
4.10

###

What follows is a collection of pIC50 values obtained with β-galactosidase (Asp. orizae) (Aspergillus oryzae).
Answers are plain numbers, as −log10 of the molar value.

Below are some compounds; for each one, tell me its pIC50.
1. OC[C@@H]1[C@@H](O)[C@H](O)CN1Cc1ccc(CN2C[C@@H](O)[C@H](O)[C@H]2CO)cc1 [13b]
2. OC[C@@H]1[C@@H](O)[C@H](O)CN1CCCCCCCCN1C[C@@H](O)[C@H](O)[C@H]1CO [13c]

[5.55, 4.51]

###

target: β-galactosidase (Asp. orizae) (Aspergillus oryzae, UniProt Q2UCU3); construct: purchased Sigma Chemical Co; assay: glycosidase inhibition assay, β-galactosidase from A. orizae; type: biochemical; conditions: pH 5.6, read-out: % inhibition at 1 mM concentration of inhibitor
Sequence (Q2UCU3 19-1005): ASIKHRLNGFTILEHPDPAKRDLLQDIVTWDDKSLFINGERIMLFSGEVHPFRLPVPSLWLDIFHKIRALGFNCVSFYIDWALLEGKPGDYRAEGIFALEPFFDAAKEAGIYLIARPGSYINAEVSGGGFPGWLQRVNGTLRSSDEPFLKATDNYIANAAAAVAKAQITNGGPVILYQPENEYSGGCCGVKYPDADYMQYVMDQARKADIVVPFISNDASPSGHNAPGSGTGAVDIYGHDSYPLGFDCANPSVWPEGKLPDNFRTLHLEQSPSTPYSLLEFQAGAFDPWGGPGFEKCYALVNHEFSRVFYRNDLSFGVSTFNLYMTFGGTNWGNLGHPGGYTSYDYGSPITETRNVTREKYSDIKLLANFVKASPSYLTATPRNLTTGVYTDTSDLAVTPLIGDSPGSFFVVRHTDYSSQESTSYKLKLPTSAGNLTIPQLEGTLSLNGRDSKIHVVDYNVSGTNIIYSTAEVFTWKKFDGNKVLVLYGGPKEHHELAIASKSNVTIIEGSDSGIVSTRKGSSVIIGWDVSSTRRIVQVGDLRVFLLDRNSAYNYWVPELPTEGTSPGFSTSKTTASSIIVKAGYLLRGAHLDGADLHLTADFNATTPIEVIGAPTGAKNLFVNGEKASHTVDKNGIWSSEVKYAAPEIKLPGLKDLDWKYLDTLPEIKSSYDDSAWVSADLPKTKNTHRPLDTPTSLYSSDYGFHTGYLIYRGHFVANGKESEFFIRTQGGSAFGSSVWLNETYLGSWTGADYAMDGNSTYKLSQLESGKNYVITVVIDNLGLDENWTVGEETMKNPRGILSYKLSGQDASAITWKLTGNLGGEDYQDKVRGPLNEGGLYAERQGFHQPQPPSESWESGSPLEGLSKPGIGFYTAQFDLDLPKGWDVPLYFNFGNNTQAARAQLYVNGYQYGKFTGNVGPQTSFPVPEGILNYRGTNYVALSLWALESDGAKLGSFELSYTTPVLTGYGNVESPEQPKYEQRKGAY
Please provide measured inhibition at 1000 µM for the entries that follow.
Numbers only, in %.

Known results for compounds:
OC[C@@H]1[C@@H](O)[C@H](O)CN1CCOCCOCCN1C[C@@H](O)[C@H](O)[C@H]1CO [13d] | 92
OC[C@H]1NC[C@@H](O)[C@@H]1O | 76

# ---- query compound ----
Consider the compound shown here: OC[C@@H]1[C@@H](O)[C@H](O)CN1CCCOCCOCCOCCCN1C[C@@H](O)[C@H](O)[C@H]1CO [13e] What is its recorded inhibition at 1000 µM?
81
